Recorded values, source patent US5607970A.

measuredOn: ACAT (AcylCoA-Cholesterolacyltransferase) (Oryctolagus cuniculus)
Construct: from tissue; host or cells: rabbit small intestine epithelium, microsome fraction
Sequence (G1SFD9 1-524): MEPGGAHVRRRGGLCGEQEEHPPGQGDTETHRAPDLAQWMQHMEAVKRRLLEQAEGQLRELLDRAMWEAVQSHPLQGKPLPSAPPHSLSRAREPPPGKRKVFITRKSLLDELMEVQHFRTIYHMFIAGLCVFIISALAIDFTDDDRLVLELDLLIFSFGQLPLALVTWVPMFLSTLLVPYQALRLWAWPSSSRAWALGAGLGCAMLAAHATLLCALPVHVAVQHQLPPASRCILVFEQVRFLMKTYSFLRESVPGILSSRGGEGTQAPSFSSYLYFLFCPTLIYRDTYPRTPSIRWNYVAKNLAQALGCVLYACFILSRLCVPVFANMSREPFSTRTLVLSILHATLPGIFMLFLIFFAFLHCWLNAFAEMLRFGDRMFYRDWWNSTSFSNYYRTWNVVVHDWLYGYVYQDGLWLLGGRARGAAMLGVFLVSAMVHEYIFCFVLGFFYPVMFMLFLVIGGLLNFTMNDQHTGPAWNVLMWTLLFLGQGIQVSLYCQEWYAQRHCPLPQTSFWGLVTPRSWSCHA
assayDetails: ACAT inhibitory activity in test tube (method of Heider et al., [1-14C]oleylCoA, small intestine epithelium microsome fraction)
Assay type: biochemical, rabbit
details: read-out: Inhibitory Ratio (%)
inhibition at 50 µg/mL values, listed per item
observationType: inhibition at 50 µg/mL (%)

                                   molecule  resultnumber
0  CCCCCCCC/C=C\CCCCCCCC(=O)OCC(O)CO (stereo not shown)            59
1  CCCCCCCCCCCCCCCCCC(=O)OCC(O)CO (stereo not shown)            29
2  CC/C=C\C/C=C\C/C=C\CCCCCCCC(=O)OCC(O)CO (stereo not shown)            50
3         CCCCCCCC/C=C\CCCCCCCC(=O)OC(CO)CO            62
